Listed here are variants together with their documented self-cleavage.
B1: CPEB3 Ribozyme (parent)
chain: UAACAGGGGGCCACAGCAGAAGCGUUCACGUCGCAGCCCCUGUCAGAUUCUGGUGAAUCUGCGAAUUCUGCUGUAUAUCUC

Variants of: B1
Experiment: self-cleavage, relative activity (ratio to wild type); higher = more cleavage; in vitro, sequencing
Respond with the number and no other words.

seq="UAACAGGGGGCCACAGCAGAAGCGUUCACGUCGCAGCCCCUGACAGAUUCUGGUGAAUCUGCGAAUUCUGCUGUAAAUCUC [U43A U76A]" readout_label=self-cleavage obs_value=1.23
seq="UAACAGGGGGCCACUACAGAAGCGUUCACGUCGCAGCCCCUGUCAGAUUCUGGUGAAUCUGCGAAUUCUGCUGUAUAUCUC [A15U G16A]" readout_label=self-cleavage obs_value=0.57
seq="UAACAGGGGGCCACAGCAGAAGCGUUCACGUCGCAGCCCCUGCCUGAUUCUGGUGAAUCUGCGAAUUCUGCUGUAUAUCUC [U43C A45U]" readout_label=self-cleavage obs_value=0.3
seq="UAACAGGGGGCCACAGCAGAAGCGUUCACGUCGCAGCCCCUGUCAGAUUCUGGUGAAGCUGCGAAUUCUGCGGUAUAUCUC [U58G U72G]" readout_label=self-cleavage obs_value=0.44

Query: self-cleavage; subject: UAACAGGGGGCCACAGCAGAAGCGUUCACGUCGCAGCCCGCGUCAGAUUCUGGUGAAUCUGCGAAUUCUGCUGUAUAUCUC [C40G U41C]
0.32

Query: self-cleavage; subject: AAACAGGGGGCCACAGCAGAAGCGUUCACGUCGCAGCCCCUGGCAGAUUCUGGUGAAUCUGCGAAUUCUGCUGUAUAUCUC [U1A U43G]
0.54

Query: self-cleavage; subject: UAACAGGGGGCCACAGCAGGAGCGUUCACGUCGCAGCCCCUGUCAGAUUCUGGUGAAUCUGCGAAUUUUGCUGUAUAUCUC [A20G C68U]
0.75

Query: self-cleavage; subject: UAACAGGGGGCCAAAGCAGAAGCGUCCACGUCGCAGCCCCUGUCAGAUUCUGGUGAAUCUGCGAAUUCUGCUGUAUAUCUC [C14A U26C]
0.63

Query: self-cleavage; subject: UAACAGGGGGCCACAGCAGAAGCGUCCACGUCGCAGCCCCUGUCAGAUUCUGGUCAAUCUGCGAAUUCUGCUGUAUAUCUC [U26C G55C]
0.33
